The origin of these recorded values is paper PMC10786891.

- measuredOn: T1, EsCas13d, nuclease-dead (Eubacterium siraeum, UniProt B0MS50, R295A;H300A;R849A;H854A)
- T1 sequence: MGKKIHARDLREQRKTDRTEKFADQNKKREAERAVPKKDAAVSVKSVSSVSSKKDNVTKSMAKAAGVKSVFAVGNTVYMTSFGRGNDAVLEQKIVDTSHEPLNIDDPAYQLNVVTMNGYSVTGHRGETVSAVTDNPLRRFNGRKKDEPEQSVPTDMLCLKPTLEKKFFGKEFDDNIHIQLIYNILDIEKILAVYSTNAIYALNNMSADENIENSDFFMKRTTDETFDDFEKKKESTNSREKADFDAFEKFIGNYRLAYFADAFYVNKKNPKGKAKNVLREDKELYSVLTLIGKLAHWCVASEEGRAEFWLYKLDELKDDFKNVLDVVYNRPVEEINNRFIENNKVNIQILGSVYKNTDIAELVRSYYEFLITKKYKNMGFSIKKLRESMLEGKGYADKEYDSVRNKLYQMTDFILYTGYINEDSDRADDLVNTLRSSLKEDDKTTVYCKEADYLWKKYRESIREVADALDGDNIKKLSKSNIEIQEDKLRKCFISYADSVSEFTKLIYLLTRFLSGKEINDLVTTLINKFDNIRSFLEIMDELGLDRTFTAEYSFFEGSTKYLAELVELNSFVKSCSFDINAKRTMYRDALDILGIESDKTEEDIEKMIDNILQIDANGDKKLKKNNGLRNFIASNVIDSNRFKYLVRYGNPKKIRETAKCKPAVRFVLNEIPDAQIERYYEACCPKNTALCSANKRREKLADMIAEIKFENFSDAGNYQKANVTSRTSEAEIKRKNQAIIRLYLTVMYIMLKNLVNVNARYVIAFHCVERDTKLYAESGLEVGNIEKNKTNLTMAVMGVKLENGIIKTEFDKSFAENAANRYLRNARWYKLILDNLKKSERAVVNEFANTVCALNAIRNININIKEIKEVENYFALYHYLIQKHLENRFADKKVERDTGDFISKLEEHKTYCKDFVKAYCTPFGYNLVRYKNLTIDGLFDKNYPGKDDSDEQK
- testMethodNotes: crRNA (strand 1, pre-loaded); Mg2+; 40 mM Tris-HCl pH 7.5, 150 mM NaCl, 6 mM MgCl2, 1 mM DTT, 0.1% Tween-20, 0.2 mg/ml BSA; 25 C; 10 min per concentration, then washed
- conditionDetails: tags: His6-TwinStrep-SUMO cleaved; N-terminal SNAP kept (SNAP-Surface 488); label: 3' end held by stalled T7 RNA polymerase
Kd reference
Number only, in nM; omit the unit.

Completed entries (count: 3):
binder	propertyMeasured	recordedMeasurement
target 3 U2A,U21C (mixed) RNA 1: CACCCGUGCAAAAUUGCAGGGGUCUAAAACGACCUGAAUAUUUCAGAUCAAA RNA 2: GGGAAUGGAUCCACAUCUACGAAUUCGUUUCUGAUCUGAAAUAUUCAGGACUGCAGAUCGGAAGAGCACACGU	Kd	39.5
target 2 MT 5'PFS CGA 3'PFS ACA (mixed) RNA 1: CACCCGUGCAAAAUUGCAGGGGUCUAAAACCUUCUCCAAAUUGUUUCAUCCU RNA 2: GGGAAUGGAUCCACAUCUACGAAUUCCGAAGGAUGAAACAAUUUGGAGAAGACAAGAUCGGAAGAGCACACGU	Kd	10.8
target 2 MT 5'PFS UCA 3'PFS UGU (mixed) RNA 1: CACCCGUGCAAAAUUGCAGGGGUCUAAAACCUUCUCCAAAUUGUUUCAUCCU RNA 2: GGGAAUGGAUCCACAUCUACGAAUUCUCAAGGAUGAAACAAUUUGGAGAAGUGUAGAUCGGAAGAGCACACGU	Kd	7.8

Look at this binder and give its reported Kd. target 1 insA 3' of 15,insA 3' of 15 (mixed) RNA 1: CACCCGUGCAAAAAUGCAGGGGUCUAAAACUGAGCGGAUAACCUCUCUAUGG RNA 2: GGGAAUGGAUCCACAUCUACGAAUUCGUACCAUAGAGAAAGGUUAUCCGCUCACCGAGAUCGGAAGAGCACACGU
6.1
